- assay.target: recombinant human MetAP2 (Homo sapiens)
- Sequence (P50579 whole entry): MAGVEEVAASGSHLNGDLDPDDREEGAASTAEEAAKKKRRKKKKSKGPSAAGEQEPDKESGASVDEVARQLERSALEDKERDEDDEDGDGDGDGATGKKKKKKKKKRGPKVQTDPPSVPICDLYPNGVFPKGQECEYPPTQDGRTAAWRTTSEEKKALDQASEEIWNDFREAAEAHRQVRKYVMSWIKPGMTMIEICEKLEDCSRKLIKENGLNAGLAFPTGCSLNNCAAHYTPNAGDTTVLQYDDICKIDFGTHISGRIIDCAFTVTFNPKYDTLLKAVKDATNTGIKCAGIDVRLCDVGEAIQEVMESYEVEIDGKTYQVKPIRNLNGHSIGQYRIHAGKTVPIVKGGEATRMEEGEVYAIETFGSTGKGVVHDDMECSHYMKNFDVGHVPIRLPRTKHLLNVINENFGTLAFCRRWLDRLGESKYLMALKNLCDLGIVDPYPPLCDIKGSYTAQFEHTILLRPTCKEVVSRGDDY
- assay.name: Inhibition of recombinant human MetAP2 activity (fluorescence, MAS substrate, amino acid oxidase/Amplex red)
- protocol.conditions: manganese enzyme; 0.75 mM Methionine-Alanine-Serine (MAS) substrate; 30 minutes at 25° C.; pH 7.5; 1% DMSO
recorded.metric: IC50

Examples with their reported IC50 follow.
compound: O=C(O)c1c(NS(=O)(=O)c2ccc(F)cc2/C=C\CNN2CC[C@H](O)C2)ccc2c1OC[C@@H]1C[C@H]21
recorded.result: 0.05 to 0.5 µM
//
compound: CCN1CC[C@H](CCNc2ccccc2S(=O)(=O)Nc2ccc3c(c2C(=O)O)OC[C@@H]2C[C@H]32)C1 (mixture of isomers)
recorded.result: 0.05 to 0.5 µM
//
compound: CCN1CC[C@@H](OCc2cc(F)ccc2S(=O)(=O)Nc2ccc3c(c2C(=O)O)OC[C@@H]2C[C@H]32)C1
recorded.result: 0.05 to 0.5 µM

Quick check: IC50 of CCN1CCC[C@H]1CCc1cc(F)ccc1S(=O)(=O)Nc1ccc2c(c1C(=O)O)OC[C@@H]1C[C@H]21 ?
0.05 to 0.5 µM

Now the compound CCN1CC[C@H](Cc2cc(F)ccc2S(=O)(=O)Nc2ccc3c(c2C(=O)O)OC[C@@H]2C[C@H]32)C1 (mixture of isomers)
0.05 to 0.5 µM

Now the compound CCN(CC)C/C=C\c1cc(F)ccc1S(=O)(=O)Nc1ccc2c(c1C(=O)O)NC[C@H]1OCC[C@@H]21 (racemic)
< 0.05 µM
